Source of measurements: the supplement of paper PMC3334620

subject.of.test: Sko1 (UniProt Q02100)
Sequence: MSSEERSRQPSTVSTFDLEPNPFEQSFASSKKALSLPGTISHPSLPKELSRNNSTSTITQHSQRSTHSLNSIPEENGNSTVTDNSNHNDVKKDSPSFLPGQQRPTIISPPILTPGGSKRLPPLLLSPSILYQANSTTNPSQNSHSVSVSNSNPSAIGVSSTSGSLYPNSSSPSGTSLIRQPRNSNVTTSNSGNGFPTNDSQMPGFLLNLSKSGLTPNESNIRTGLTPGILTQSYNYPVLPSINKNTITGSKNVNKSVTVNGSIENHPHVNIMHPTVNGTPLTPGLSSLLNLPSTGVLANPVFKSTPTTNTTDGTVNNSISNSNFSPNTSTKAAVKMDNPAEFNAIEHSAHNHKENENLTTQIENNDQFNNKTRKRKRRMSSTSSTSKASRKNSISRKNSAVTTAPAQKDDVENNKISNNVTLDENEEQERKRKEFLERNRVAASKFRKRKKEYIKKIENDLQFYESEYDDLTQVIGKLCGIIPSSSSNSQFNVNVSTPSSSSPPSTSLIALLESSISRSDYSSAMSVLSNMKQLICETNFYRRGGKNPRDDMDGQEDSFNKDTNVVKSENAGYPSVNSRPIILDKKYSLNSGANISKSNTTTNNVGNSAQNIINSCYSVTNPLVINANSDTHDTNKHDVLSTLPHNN
measurement.notes: PBM E-score (8-mer binding enrichment) (E-score (-0.5 to 0.5)); higher = stronger / more preferred TF binding
run.parameters: protein concentration: 200 nM; construct: GST-full length
In all, about 33,000 sequences were measured (“E-score (-0.5 to 0.5)”: median about -0.032, highest 2% from about 0.36 on). Shown is part of a subset that was picked to be rich in the highest values.
Quick rule for you: PBM E-score at 0.2 or higher means met, lower means not met.

Q) Dear colleague, could you confirm whether `AAGCGGAA` has PBM E-score at or above 0.2?
A) not met

Q) Reported PBM E-score at or above 0.2? `AACGTAGT`
A) met

Q) Does the sequence `GCGTAACA` have recorded PBM E-score that is 0.2 or more?
A) met

Q) Could you tell me if the measured PBM E-score of `GGTACGTA` reaches 0.2 or more?
A) met

Q) Test whether the sequence `AATGTCGG` records PBM E-score of 0.2 or higher.
A) not met

Q) Could you please find out whether `AGTACGAA` has PBM E-score that meets 0.2 or exceeds it?
A) met

Q) For this sequence, is measured PBM E-score 0.2 or higher? `CCCACGCA`
A) not met

Q) Check the entry `CCGTGATC` : does PBM E-score equal or exceed 0.2?
A) not met

Q) Textbook exercise: given the entry `AATTGCGT` , state whether its PBM E-score is greater than or equal to 0.2.
A) met

Q) Hi team, for `AGGGCGAC` , is the recorded PBM E-score at or above 0.2?
A) not met

Q) Does the sequence `AATTGCGA` have recorded PBM E-score that is 0.2 or more?
A) not met

Q) Identify whether the reported PBM E-score of the following sequence is 0.2 or greater: `ACGTGATA`
A) met

Q) Can `AACGTACT` be said to have PBM E-score at or above 0.2?
A) met

Q) Is reported PBM E-score greater than or equal to 0.2 here: `ATGGACAC`
A) not met

Q) Does PBM E-score meet or surpass 0.2 for `TGCTTCCA` ?
A) not met

Q) Please check the record `TCGTAACA` and state if its PBM E-score is at or above 0.2.
A) met

Q) State whether the measured PBM E-score reaches 0.2, counting equality as reaching it, for `CCCACGCC`
A) not met

Q) Please indicate if the recorded PBM E-score for `AGTACGTA` meets or exceeds 0.2.
A) met

Q) # bool: PBM E-score of `AATGTCGA` >= 0.2
A) met

Q) Dear colleague, could you confirm whether `AGCCTTTA` has PBM E-score at or above 0.2?
A) not met

Q) Hi team, for `TCGTGAAA` , is the recorded PBM E-score at or above 0.2?
A) not met

Q) Could you tell me if the measured PBM E-score of `AATGTCGT` reaches 0.2 or more?
A) met

Q) Entry `CCCACGGC` : is its PBM E-score no less than 0.2?
A) not met

Q) Form field: PBM E-score at least 0.2? Entry: `CCCACGTC`
A) met

Q) Could you verify whether the entry `ACGTAACT` shows PBM E-score of no less than 0.2?
A) met

Q) State whether the measured PBM E-score reaches 0.2, counting equality as reaching it, for `ACCGTACG`
A) not met

Q) Evaluate `CCGTAACC` : PBM E-score at minimum 0.2?
A) not met

Q) # check: PBM E-score of `AGTACGAC` is greater than or equal to 0.2
A) not met

Q) State whether the measured PBM E-score reaches 0.2, counting equality as reaching it, for `TAGGTTCA`
A) not met

Q) Kindly determine if PBM E-score recorded for `ACGTGAAA` is above or exactly 0.2.
A) met

Q) Check the entry `CCCACGTA` : does PBM E-score equal or exceed 0.2?
A) met

Q) Identify whether the reported PBM E-score of the following sequence is 0.2 or greater: `ACGGTTTA`
A) not met

Q) I'd appreciate it if you could say whether `CCCTAGGC` has PBM E-score at least equal to 0.2.
A) not met

Q) Textbook exercise: given the entry `AGGCACGA` , state whether its PBM E-score is greater than or equal to 0.2.
A) not met

Q) Determine whether measured PBM E-score meets or exceeds 0.2 for `ACCGTACT`
A) not met

Q) Does PBM E-score meet or surpass 0.2 for `AGGCCTGC` ?
A) not met

Q) # bool: PBM E-score of `CCGTAACG` >= 0.2
A) not met

Q) # check: PBM E-score of `AAGTAACG` is greater than or equal to 0.2
A) not met

Q) Answer whether PBM E-score of `ACGTGAGG` is greater than or equal to 0.2.
A) met

Q) Decide: PBM E-score of `ACTTGTGG` >= 0.2?
A) not met

Q) Could you please find out whether `ACGGTAGG` has PBM E-score that meets 0.2 or exceeds it?
A) not met

Q) Kindly determine if PBM E-score recorded for `CCCTAAAG` is above or exactly 0.2.
A) not met

Q) Is it the case that `AAGGTAGT` has PBM E-score reaching or exceeding 0.2?
A) not met

Q) Does PBM E-score meet or surpass 0.2 for `GAACCTCA` ?
A) not met

Q) Decide: PBM E-score of `AGTACGGC` >= 0.2?
A) not met

Q) Entry `GGTACGAA` : is its PBM E-score no less than 0.2?
A) not met

----------
subject.of.test: Sko1 (UniProt Q02100)
Sequence: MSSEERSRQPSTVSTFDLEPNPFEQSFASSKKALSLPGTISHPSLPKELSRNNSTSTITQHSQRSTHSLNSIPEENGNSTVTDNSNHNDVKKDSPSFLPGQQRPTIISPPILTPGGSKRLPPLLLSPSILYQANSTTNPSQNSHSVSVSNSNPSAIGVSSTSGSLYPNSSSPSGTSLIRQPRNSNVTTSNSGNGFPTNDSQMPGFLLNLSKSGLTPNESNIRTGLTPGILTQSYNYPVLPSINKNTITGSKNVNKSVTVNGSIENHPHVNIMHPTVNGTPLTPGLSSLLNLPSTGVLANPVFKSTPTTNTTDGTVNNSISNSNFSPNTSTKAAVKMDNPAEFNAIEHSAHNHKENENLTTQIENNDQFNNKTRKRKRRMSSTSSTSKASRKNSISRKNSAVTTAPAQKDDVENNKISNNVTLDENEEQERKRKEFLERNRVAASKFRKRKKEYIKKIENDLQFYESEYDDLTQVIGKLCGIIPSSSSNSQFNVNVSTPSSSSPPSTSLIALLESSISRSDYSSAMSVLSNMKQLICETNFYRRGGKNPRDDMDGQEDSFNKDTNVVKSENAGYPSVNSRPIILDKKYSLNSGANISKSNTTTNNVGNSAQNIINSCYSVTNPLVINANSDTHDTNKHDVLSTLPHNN
measurement.notes: PBM E-score (8-mer binding enrichment) (E-score (-0.5 to 0.5)); higher = stronger / more preferred TF binding
run.parameters: protein concentration: 200 nM; construct: GST-full length
Over roughly 33,000 sequences, “E-score (-0.5 to 0.5)” has its median near -0.032; the highest 2% begin near 0.36. This is one part of a sample in which the highest values are shown more often than they occur.
Hi there, I'd appreciate the recorded PBM E-score for every entry that follows.

# PBM E-score measured on Sko1 (UniProt Q02100) for item `AGTCACCA` = -0.269

Bench note, Sko1 (UniProt Q02100): `GAAAGTGC` , PBM E-score reads -0.11

// PBM E-score (Sko1 (UniProt Q02100)) for `ACGTGTTA` = 0.434

For the sequence `CGTCACCC` , the measured PBM E-score on Sko1 (UniProt Q02100) was 0.409

Recorded PBM E-score for `CTTTCGTA` on Sko1 (UniProt Q02100) was 0.339

So the reported PBM E-score for `ATGTGTTG` , on Sko1 (UniProt Q02100), turned out to be 0.203

Entry `CCTACGCG` ; assay system Sko1 (UniProt Q02100); PBM E-score recorded at 0.117

Considering `CATTGTTA` , its PBM E-score with Sko1 (UniProt Q02100) was recorded as 0.108

The recorded PBM E-score with Sko1 (UniProt Q02100) for `AACTGAAG` was 0.0972

Record `CCAATGAC` / Sko1 (UniProt Q02100), PBM E-score recorded as 0.253

Observed PBM E-score, Sko1 (UniProt Q02100), `CTGTACCC` : -0.24

PBM E-score on Sko1 (UniProt Q02100) for `ATAATGGA` is 0.068

Note to self: PBM E-score of `ATAATGAT` with Sko1 (UniProt Q02100) was 0.278

// PBM E-score (Sko1 (UniProt Q02100)) for `CGTCACCA` = 0.447

The sequence `GCAATGAC` , when measured on Sko1 (UniProt Q02100), yielded PBM E-score of 0.374

Let me check: `CACTTGAC` , system Sko1 (UniProt Q02100), measured PBM E-score is 0.186

PBM E-score value, target or system Sko1 (UniProt Q02100), for `ATTTCGTA` : 0.372

// sequence `CCGTCAGC` , assay Sko1 (UniProt Q02100), PBM E-score value: -0.127

Given the sequence `AGGTGTTG` and test system Sko1 (UniProt Q02100), the measured PBM E-score is 0.0206

Summary: `CGAAGGGC` , Sko1 (UniProt Q02100), PBM E-score = -0.104

PBM E-score for Sko1 (UniProt Q02100) with input `ATAGGTCG` equals -0.195

Field PBM E-score (Sko1 (UniProt Q02100)), entry `AAAATTCC` : -0.152

Kindly note: Sko1 (UniProt Q02100), `CCCGGTAA` , PBM E-score value reported: -0.206

# PBM E-score measured on Sko1 (UniProt Q02100) for item `AGAATGAC` = 0.377

Sko1 (UniProt Q02100) assay, sequence `AAATTGAG` , recorded PBM E-score = -0.0473

Value sought: PBM E-score, system Sko1 (UniProt Q02100), item `CACTTCCA` . Result: 0.109

# value of PBM E-score, Sko1 (UniProt Q02100), item `AGGTGTTC` = -0.0318

Hey, Sko1 (UniProt Q02100) data for `AGAGCAGC` : PBM E-score came out at -0.173

# value of PBM E-score, Sko1 (UniProt Q02100), item `GTAATGGA` = 0.402

Field PBM E-score (Sko1 (UniProt Q02100)), entry `TGAAGACA` : 0.0964

Measured PBM E-score for this entry `ATTTCGTC` on Sko1 (UniProt Q02100): 0.343

Known value: Sko1 (UniProt Q02100) PBM E-score of the sequence `ACTGGTAT` equals -0.17

PBM E-score value, target or system Sko1 (UniProt Q02100), for `AGCCAATG` : -0.049

Tested system Sko1 (UniProt Q02100); PBM E-score recorded for `CCTACGCC` was -0.0487

`GCGTCAGC` tested on Sko1 (UniProt Q02100) gave PBM E-score: 0.209

Entry `GCTACGCA` ; assay system Sko1 (UniProt Q02100); PBM E-score recorded at 0.294

Record `ACCTCCGG` has Sko1 (UniProt Q02100) PBM E-score equal to -0.282

Entry `GCAATGAA` , tested on Sko1 (UniProt Q02100), has a reported PBM E-score of 0.128

Entry `GCGTGTTA` ; assay system Sko1 (UniProt Q02100); PBM E-score recorded at 0.114

Form field, PBM E-score with Sko1 (UniProt Q02100), item `AGACTTAT` : -0.0312

# value of PBM E-score, Sko1 (UniProt Q02100), item `GATTCGTA` = 0.251

So the reported PBM E-score for `CTAATGGA` , on Sko1 (UniProt Q02100), turned out to be -0.158

Note to self: PBM E-score of `CCTCACCC` with Sko1 (UniProt Q02100) was -0.148

Readout PBM E-score for `TAGGATGA` , test system Sko1 (UniProt Q02100), was 0.136

Sko1 (UniProt Q02100) data for `AGGCCGCC` ; its PBM E-score: -0.182

Measured PBM E-score for this entry `AACAGTGG` on Sko1 (UniProt Q02100): -0.244
